Measured apparent KD of MS2 coat protein values are reported for all entries that follow.
Tested on: MS2 coat protein
Assay: apparent KD of MS2 coat protein; designed switch direction (-1 OFF switch, 1 ON switch): -1; higher = weaker reporter binding
Conditions: input ligand: microRNA oligo, concentration not stated
QUANTITY NAME: apparent KD of MS2 coat protein (nM)

residues="UAUAUAUAGUAAGGAUAUGUAUUAAUGUUAUAAACAGAAGGUACUGACAUGAGGAUCACCCAUGUUUUAGUGUGGGCAUGUAGA [JMF's solution 78] (Eterna round: R96, puzzle: Exclusion NG 1)" quantity_name="apparent KD of MS2 coat protein" value_measured=73.8
residues="UUUUUUUUGCGAGGAUAUGCAUUUAGUUAGUUAGCAGAAGGCGCGUUUCUAUACUCCUCUUCUUACAUGAGGAUCACCCAUGUU [JR_ExcNG1_Sub033] (Eterna round: R96, puzzle: Exclusion NG 1)" quantity_name="apparent KD of MS2 coat protein" value_measured=34.5
residues="AUUAUAUAGGUAGGAUAUAGAAUAUUAUUUUAACAUGAGGAUCACCCAUGUAACCUUAUGUGUAGCUAGAAGGACCAUUUAUUA [Title] (Eterna round: R96, puzzle: Exclusion NG 2)" quantity_name="apparent KD of MS2 coat protein" value_measured=64.6
residues="AAAACUUUGAGAGGAUAUCUGAAAGGAAGUGUAAGAGAAGGCUCAGAGGACAUGAGGAUCACCCAUGUACGUCAUGGGCUCCGA [PowerStrip EXNG 1.15] (Eterna round: R96, puzzle: Exclusion NG 1)" quantity_name="apparent KD of MS2 coat protein" value_measured=39.6
residues="CACCUGAACUCAGGAUAUCAUACAUGAGGAUCACCCAUGUAAUAAAUGAGAAUUUCGAAUGUAAUUGAGAAGGGAGAAUAAGGC [Ostricism 98 - Jieux - Exclusion NG 2] (Eterna round: R96, puzzle: Exclusion NG 2)" quantity_name="apparent KD of MS2 coat protein" value_measured=33.8

###

Tested on: MS2 coat protein
Assay: apparent KD of MS2 coat protein, switch OFF state (with FMN for OFF switches, without FMN for ON switches); designed switch direction (-1 OFF switch, 1 ON switch): -1; higher = weaker reporter binding
Conditions: FMN input: 0 or 200 uM; Eterna round: R93 (includes R88 designs)
Each entry below carries its reported apparent KD of MS2 coat protein.
QUANTITY NAME: apparent KD of MS2 coat protein

residues="UGUUGGCGAGGAUAUACAUGAGGAUCACCCAUGUGAGAGAAAAAAGUGAGAAAGAAAAGUAGAAGGCGCUGACA [salish99-ex3-07]" value_measured="282 nM"
residues="AAGAACCAAGGAUAUACAUGAGGAUCACCCAUGUAAAAGAAAGAAAAGGGAAAGAAAAGUAGAAGGUGGAAGAA [Userkheperure Seti II]" value_measured="27.3 nM"
residues="AAAAAGUCAGGAUAUACGAAAGUGCGAAAGCACAAAAAGGGACAUGAGGAUCACCCAUGUAGAAGGGACAAGAA [Married to this design, 61% 3]" value_measured="50.4 nM"

###

System: MS2 coat protein
Assay: apparent KD of MS2 coat protein; designed switch direction (-1 OFF switch, 1 ON switch): 1; higher = weaker reporter binding
Conditions: input ligand: FMN 200 uM
QUANTITY NAME: apparent KD of MS2 coat protein

residues="UGUUAGUAGACAGGAUAUUGAAUGUUAAGUAUUAACAUGAGGAUCACCCAUGUAUUUGAUUGGUACAAGAAGGGUCAAGUUUGU [JR_SSNG2_Sub013] (Eterna round: R96, puzzle: Same State NG 2)" value_measured="487 nM"
residues="UGGCUCAGACGAGGAUAUAUGUCUCGAGCUUCGGCUCGAGACAUGAGGAUCACCCAUGUAAUAACAUAGAAGGUGUCUGAGCCA [SSNG2/1-C2] (Eterna round: R96, puzzle: Same State NG 2)" value_measured="50.6 nM"
residues="UUACUCAUGUAAGGAUAUGCAGCCGAAACGGCUGCAGAAGGUACUAUAAUACAUGAGGAUCACCCAUGUCUCUAUUAUAAAGUU [Mat - Same State NG 1 - JL mod - D95] (Eterna round: R96, puzzle: Same State NG 1)" value_measured="94.8 nM"
residues="UUCACCUUAUUUUACAUGAGGAUCACCCAUGUUUUUUUUACGUAGGAUAUCGAUGCUUGAUUGUUCGAGAAGGACGAUGUAAGU [JR_SSND3_Sub054] (Eterna round: R96, puzzle: Same State NG 3)" value_measured="27.3 nM"

###

Let's look at some sequences and their measured apparent KD of K4 kissing-loop reporter.
Tested on: K4 kissing-loop RNA reporter
Experiment: apparent KD of K4 kissing-loop reporter; higher = weaker reporter binding
Conditions: Eterna round: R107; input ligand: theophylline 20 uM
QUANTITY NAME: apparent KD of K4 kissing-loop reporter (nM)

residues="AAAACUCCGGGUAGUGAUGUUACCUAGGAUACCAGUAUCGCAACAUACCCUUGGCAGCCUCUUCCUGCUGGCGUCGCUUGGCCUA [theeternabot_exclusion_KL_Theo_A_42]" value_measured=91.9
residues="CCAUCGCUAUUCGAUACCAGUCAUAAAAUCUUUGGUUAAAUAAAGGAGUGAUGUUCCAAAGACCCUUGGCAGCGAAUAGUGAUGG [Theophylline B K4 6]" value_measured=887
residues="UGUUUUUUUUUGAUGUUUGUUGUAAAAUGGCAGGAUAUCGUAGAGGCGAGAAGGGCUUUUAUGCGUUAUGAGUGAUGUUUGUAGG [vevvmullin]" value_measured=269
residues="AUUGUACAAGUGAUGUUUGUUUUUUCCGAAGGAGCGUCUAAUAAGACAGGUAGGUCGCGGAUUCUCUUAAUAAUCAGGUCAUUAA [JR_Nu_ExcArginiA_Sub020]" value_measured=281
residues="GCGGGCGGCUGAAGGAGCGGGCGGGCCCGAGUGAUGUUCGGGUGGGCCGUGAGGCCCGGAGCCCAGGUAGGUCGCGGUUCCGUCC [#2 Same State - Arginine B Attempt #19 (HarryS)]" value_measured=170
residues="CGCUCGAAAAUUAAGUGAGUGAUGUUCACUCGAGGACCGGUACGGCCGCCACUCGUCUUACGUUGAGACACUGCUCGUACUCAUA [theeternabot_exclusion_KL_Trp_A_38]" value_measured=722

###

Quick reference: apparent KD of K4 kissing-loop reporter of the listed items.
Tested on: K4 kissing-loop RNA reporter;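 note: bound reporter read as fluorescence of individual clusters on recovered sequencing chips by microscopy, with normalized cluster intensities fitted with a binding model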
Experiment: apparent KD of K4 kissing-loop reporter; higher = weaker reporter binding
Conditions: Eterna round: R107; input ligand: arginine 13.2 mM
QUANTITY NAME: apparent KD of K4 kissing-loop reporter (nM)

residues="GGAUUCACCAGUGAUGUUGGAGAAAACUCGAAGGAUAUGACGAAAGUCAGAAGGUCGUAGACUGGACAAAGUCCGGUCGGAUCCA [KL-SSFMN-A22]" quantity_name="apparent KD of K4 kissing-loop reporter" value_measured=250
residues="ACUUAGAAUGAAGGAUAUUGGUUACGAGGGCUAACCAAAACGGAUCACUUGUCCAGUGAUGUUGUCCAAGAAGGUCACGUUAAAC [theeternabot_exclusion_KL_FMN_B_44]" quantity_name="apparent KD of K4 kissing-loop reporter" value_measured=665
residues="AGAUACUUUAUCGCUAGAGGCAUUGCAGAUACCAGCCUAUCUAGAGGCCCUUGGCAGCUGGAGUGAUGUUUCGGCUUAGCUAAAG [theeternabot_exclusion_KL_Theo_A_32]" quantity_name="apparent KD of K4 kissing-loop reporter" value_measured=317
residues="UAAGAUAUAAGGGAUACCAGCCAUAAGGAAAGUGUGAUGAGUGAUGUUCUGACAAGCCAAGGCCCUUGGCAGCUUUAAUAGCAUC [Theophylline B Same State; Euphoria Solution]" quantity_name="apparent KD of K4 kissing-loop reporter" value_measured=198
residues="UGUACCGAGUCAGGAUAUGGCGUCGAAAGACGAAUCCUAGUGAUGUUAGGGAUCUGCGAAAGCAGUCCAGAAGGGACUUGGUACU [FmnBS 26 #SwitchBubble #StaticStem #DoubleMagnetSystem]" quantity_name="apparent KD of K4 kissing-loop reporter" value_measured=340
residues="GCGCGUCAUGGCGGCGGUGACUACGCCGAUACCAGCCGGGAAACCGGCCCUUGGCAGCGGCGCGCCGGAGUGAUGUUCCGACAGA [#2 Exclusion - Theophylline A Attempt #4 (HarryS)]" quantity_name="apparent KD of K4 kissing-loop reporter" value_measured=275
residues="GUGCAGUGAUGUUGCACGAGGAAAGACGAUACCAGCCGCAAAUGUGGCCCUUGGCAGCGUGGGCUAGCACAAAAUAUGCUAGUCU [Ricegeusat]" quantity_name="apparent KD of K4 kissing-loop reporter" value_measured=113
residues="UAGCGGGCGAUUCGACGUGCGUCCAGUCAUCGAGGACCGGUACGGCCGCCACUCGCCGGAGUGAUGUUCCGGUACGUCAUAUAAU [theeternabot_sameState_KL_Trp_A_35]" quantity_name="apparent KD of K4 kissing-loop reporter" value_measured=358
residues=GCCGUAGAUUGAAGGAGCGAGUAGGCUCACUUGCGAAGUGAAUAGCAGAGUGAUGUUCUGUCUCAGGUAGGUCGCAAUCUACGGC quantity_name="apparent KD of K4 kissing-loop reporter" value_measured=172
residues="GUCCACACUGCAGGAUAUGGAGGAAUAGCGAGGGAGUGUGGAAGCACACCUCUGGCAGUGAUGUUGCCAGAAGGGCGGUGCGGCG [Cemaorar]" quantity_name="apparent KD of K4 kissing-loop reporter" value_measured=75.5
residues="GUAAGAUGAGGAGGAGGAUGAAUUACUGAAGGAGCGCAUAUAAAUGCAGGUAGGUCGCGGUAAAGAAGUAUAGUGAUGUUAUAUA [#20 K4 Arginine A Same State]" quantity_name="apparent KD of K4 kissing-loop reporter" value_measured=508
